# GI50 values compiled below
Test system: NCI-H23 lung
experimental-protocol: NCI tumour cell line growth inhibition, 48 h
measured-parameter: GI50

compound	target-entity	endpoint-value
CCOC(=O)c1ccc(N[C@@H]2c3cc4c(cc3C(c3cc(OC)c(O)c(OC)c3)[C@H]3C(=O)OCC32)OCO4)cc1 (some centres not stated)	NCI-H23 lung	191 nM
Cc1nc2ccccc2c(/C=C/c2ccc(F)cc2)c1C(=O)/C=C/c1ccccc1	NCI-H23 lung	1990 nM
O=C(N/N=C/c1cc(Cl)cc(Cl)c1[O-])c1ccccc1O.O=C(N/N=C/c1cc(Cl)cc(Cl)c1[O-])c1ccccc1O.[Mn+2]	NCI-H23 lung	301 nM
CC(C)C[C@H](NC(=O)[C@@H](N)Cc1cccc2ccccc12)B(O)O	NCI-H23 lung	245 nM
CCOC(=O)CCC(NC(=O)c1ccc(Oc2nc3cc(N)cc(N)c3nc2-c2ccccc2)cc1)C(=O)OCC (configuration not stated)	NCI-H23 lung	15500 nM
CCc1n(Cc2ccc3ccccc3c2)cc[n+]1Cc1ccc2ccccc2c1	NCI-H23 lung	396 nM
O=C1c2c[n+](Cc3ccccc3)ccc2-c2nc3ccccc3c3ccnc1c23	NCI-H23 lung	158 nM
